B1: 3'-5' exoribonuclease 1, residues 65 to 114; numbered along this chain, Q8IV48 (parent)
chain: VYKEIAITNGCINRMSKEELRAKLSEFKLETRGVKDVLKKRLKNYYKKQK

variants of: B1; test: abundance fitness (aPCA) (normalised: wild type 0, dead -1); higher = more abundant; growth selection in yeast, the domain comes from the species named; details: Homo sapiens
Quick rule for you: abundance fitness at -0.2 or higher means condition met, lower means condition not met.

# check: abundance fitness of `VYKEIAITNGCINRMSKEELRAKLSEFKLETRGDKDVLKKRLKNYYKKQK` is greater than or equal to -0.2
condition not met

# check: abundance fitness of `VYKKIAITNGCINRMSKEELRAKLSEFKLETRGVKDVLKKRLKNYYKKQK` is greater than or equal to -0.2
condition not met

# check: abundance fitness of `VYKEIAITNGCINRMSKEELRAKLSEFKLETRGVKFVLKKRLKNYYKKQK` is greater than or equal to -0.2
condition not met

# check: abundance fitness of `VYKEIAITFGCINRMSKEELRAKLSEFKLETRGVKDVLKKRLKNYYKKQK` is greater than or equal to -0.2
condition met

# check: abundance fitness of `VYKEIAITNGCINRMSKEELRAKLSEFKLETRGVKDVLKDRLKNYYKKQK` is greater than or equal to -0.2
condition not met

# check: abundance fitness of `VYKEIAITNGCINRMSKEELRAKLSEFKLETRWVKDVLKKRLKNYYKKQK` is greater than or equal to -0.2
condition not met

# check: abundance fitness of `VYKEIAITNGCINRMSKEELRAKLSEPKLETRGVKDVLKKRLKNYYKKQK` is greater than or equal to -0.2
condition not met

# check: abundance fitness of `VYKEIAITNGCINPMSKEELRAKLSEFKLETRGVKDVLKKRLKNYYKKQK` is greater than or equal to -0.2
condition not met

# check: abundance fitness of `VYKEIAIKNGCINRMSKEELRAKLSEFKLETRGVKDVLKKRLKNYYKKQK` is greater than or equal to -0.2
condition met

# check: abundance fitness of `VYKEIAITNGCINRMSKEELRAKLSEFKLETRGVKDFLKKRLKNYYKKQK` is greater than or equal to -0.2
condition not met

# check: abundance fitness of `VYKEIAITNGCINYMSKEELRAKLSEFKLETRGVKDVLKKRLKNYYKKQK` is greater than or equal to -0.2
condition not met

# check: abundance fitness of `VYKEIAITNGCINRMSKEELRAKLSEFKLETRGVKDVHKKRLKNYYKKQK` is greater than or equal to -0.2
condition not met

Values compiled from the Human Domainome abundance scans (Beltran et al. 2025).
